B1: mRNA-splicing (parent)
chain: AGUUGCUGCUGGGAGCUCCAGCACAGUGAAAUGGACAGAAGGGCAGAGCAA

Variants of: B1
Assay: exon inclusion enrichment index; higher = more inclusion; WT1 exon 5 minigene, HEK293
Quick rule for you: exon inclusion enrichment index at 0.2 or higher means 1.0, lower means 0.0.

[[record]]
variant_identifier = "C6U U7A"
cat = 0.0

[[record]]
variant_identifier = "G5A U7C G8A U10C C44G A45G"
cat = 1.0

[[record]]
variant_identifier = "G5U G8U C9U G33C"
cat = 1.0

[[record]]
variant_identifier = "G5U G8U C9U G46U A47C"
cat = 1.0

[[record]]
variant_identifier = "G5C C6A U7C G8A U10A A20U G21U"
cat = 0.0

[[record]]
variant_identifier = "G5U G8U C9U C19A A20U"
cat = 0.0

[[record]]
variant_identifier = "G5C C6U"
cat = 0.0

[[record]]
variant_identifier = "G5U G8U C9U C24A"
cat = 0.0

[[record]]
variant_identifier = "G5A C6U U7A G8U C9A G48A"
cat = 0.0

[[record]]
variant_identifier = "G5C C6U G8C C9U U10C G15U C16G"
cat = 1.0

[[record]]
variant_identifier = "G5C C6G U7C U10C C16G U17G"
cat = 1.0

[[record]]
variant_identifier = "G2A U3A G5C C6U G8C C9U U10C"
cat = 1.0

[[record]]
variant_identifier = "G5C C6A U7C G8A U10A C22A A23C"
cat = 1.0

[[record]]
variant_identifier = "C6A U7A C9A U10A C22U A23U"
cat = 1.0

[[record]]
variant_identifier = "G5A C6U U7A G8U C9A A31G"
cat = 0.0

[[record]]
variant_identifier = "G5A U7C G8A U10C G33A G34C"
cat = 1.0

[[record]]
variant_identifier = "G15A C16A"
cat = 0.0

[[record]]
variant_identifier = "G2A U3G"
cat = 0.0

[[record]]
variant_identifier = "U4A G5A"
cat = 0.0

[[record]]
variant_identifier = "G5C C6U G8C C9U U10C A40G G41A"
cat = 1.0

[[record]]
variant_identifier = "G5C C6U G8C C9U U10C G34A A35U"
cat = 1.0

[[record]]
variant_identifier = "G5U G8U C9U U17A C18A"
cat = 0.0

